Reference source for all entries: patent US20250270319A1

biological target: human CD33 on primary human dendritic cells (human, UniProt P20138 18-364); test: cell-based or functional assay
Sequence (P20138 18-364): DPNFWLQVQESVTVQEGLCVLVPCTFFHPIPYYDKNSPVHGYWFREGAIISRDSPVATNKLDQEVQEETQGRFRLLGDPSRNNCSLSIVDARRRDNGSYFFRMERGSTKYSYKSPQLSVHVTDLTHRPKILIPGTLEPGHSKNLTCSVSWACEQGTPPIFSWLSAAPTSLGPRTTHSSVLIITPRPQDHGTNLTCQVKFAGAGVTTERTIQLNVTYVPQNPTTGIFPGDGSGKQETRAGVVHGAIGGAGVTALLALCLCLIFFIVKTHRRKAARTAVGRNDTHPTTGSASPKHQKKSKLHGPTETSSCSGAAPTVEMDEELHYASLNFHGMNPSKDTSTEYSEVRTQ
measure.name: Fold increase in potency compared to 6C7H5 (fold)
# value in fold; strip the unit string

Reference set (2 entries):
{"binder": "anti-CD33 antibody 6C7H16 (antibody, V domains shown, VH/VL only) VH: EVQLVESGGGLVQPGGSLRLSCAGSGFTFSNYLMNWVRQAPGKGLEWVAEIRLKSNNYVTNYAASVKGRFTISRDDSKNSVYLQMNSLKTEDTGVYYCTRAGYYVPFAYWGQGTLVTVSS VL: QLVLTQSPSASASLGASVKLTCTLSSQHSTYTIEWYQQQPEKGPRYLMELKKEGSHSTGDGIPDRFSGSSSGAERYLTISSLQSEDEADYYCGVGDTIKEQFVYVFGGGTKLTVL", "val": 0.1}
{"binder": "anti-CD33 antibody 6C7H24 (antibody, V domains shown, VH/VL only) VH: EVQLVESGGGLVQPGGSLRLSCAGSGFTFSNYNMNWVRQAPGKGLEWVAEIRLKSNNYVTNYAASVKGRFTISRDDSKNSVYLQMNSLKTEDTGVYYCTRAGYYVPFAYWGQGTLVTVSS VL: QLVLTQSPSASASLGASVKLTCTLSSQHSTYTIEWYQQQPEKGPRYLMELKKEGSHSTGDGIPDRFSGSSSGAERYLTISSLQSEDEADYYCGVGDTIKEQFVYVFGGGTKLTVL", "val": 0.1}

### Prompt Value lookup for Fold increase in potency compared to 6C7H5; key = anti-CD33 antibody 6C7H26 (antibody, V domains shown, VH/VL only) VH: EVQLVESGGGLVQPGGSLRLSCAGSGFTFSNYIMNWVRQAPGKGLEWVAEIRLKSNNYVTNYAASVKGRFTISRDDSKNSVYLQMNSLKTEDTGVYYCTRAGYYVPFAYWGQGTLVTVSS VL: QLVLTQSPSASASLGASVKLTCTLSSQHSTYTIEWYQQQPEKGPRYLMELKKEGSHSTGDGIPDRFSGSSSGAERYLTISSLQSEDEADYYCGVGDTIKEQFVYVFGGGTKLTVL
### Response 0.2
